Tested on: OVCAR-4 ovarian
Experiment: NCI tumour cell line growth inhibition, 48 h
Kindly state TGI for each of the entries shown.

// query Look at this compound and give its reported TGI. `COc1cc2c(cc1OCCCOc1cc(-c3ccc(F)cc3)nc(C)n1)N=C[C@@H]1CCCN1C2=O`
// result > 100 µM

// query Please give the result for CC(C)(C)NC(C1=CC(C)(C)c2ccccc2C1=O)c1ccccc1 (stereo not given) too.
// result 5.93 µM

// query Please give the result for `CNC(=O)CN(CC(=O)NC)C(=O)NC` too.
// result > 100 µM

// query Please give the result for `COc1cc(O)c2c(O)c3c(c4c2c1[C@]1(C4)C(C)=CCCC1(C)C)[C@H](O)[C@@]1(O)CC(=O)C(C(N)=O)=C(O)[C@@]1(O)C3=O` too.
// result 1.39 µM

// query Please give the result for `C=C1C(=O)O[C@@H]2C[C@@]3(C)CCC[C@H](C)C3=C[C@H]12` too.
// result 17.6 µM

// query Please give the result for CC(=O)Oc1ccc2c(c1)Oc1cc(C(C)=O)ccc1C21OC(=O)c2ccccc21 (stereo not given) too.
// result > 100 µM

// query Please give the result for `CN(C)c1ccc(-c2cc(=O)c3cc4c(cc3[nH]2)OCO4)cc1` too.
// result > 100 µM

// query Please give the result for O=C1CC(c2ccc(N3CCOCC3)cc2)(c2ccsc2)NC(=O)C1Sc1ccccc1Cl (stereo not given) too.
// result > 100 µM

// query Please give the result for `Cc1nc2c(n1CCO)C(=O)c1ccccc1C2=O` too.
// result 99 µM

// query Please give the result for `COC(=O)/C=C/c1ccc2c(c1)CCC2` too.
// result > 100 µM

// query Please give the result for `CN(NC(=O)c1ccco1)C1=NCCN1` too.
// result > 100 µM

// query Please give the result for COC(OC)C1OC(CO)C(n2cc(C)c(=O)[nH]c2=O)C1O (stereo not given) too.
// result > 100 µM

// query Please give the result for CC1=NN(C(=O)CC(=O)Nc2ccccc2C)C(=O)C1N=Nc1ccc(C(=O)O)cc1 (stereo not given) too.
// result > 100 µM

// query Please give the result for COc1cc(C2=NN(C)C(c3ccc([N+](=O)[O-])o3)C2)cc(OC)c1OC (stereo not given) too.
// result > 100 µM

// query Please give the result for `COc1cc(N(CCC#N)CCC#N)ccc1/C=C1\SC(=S)NC1=O` too.
// result > 100 µM

====

System: OVCAR-4 ovarian
Experiment: NCI tumour cell line growth inhibition, 48 h
reported.property: GI50

// query Look at this molecule and give its reported GI50. `COc1cc2nc3sc(C(=O)Nc4ccc(C(=O)OC(C)C)cc4)c(C(=O)Nc4ccc(Cl)cc4C)n3c(=O)c2cc1OC`
// result 11.2 µM

// query Please give the result for `Cn1nccc1Nc1nccc(-c2cc3c(s2)C(C)(C)N(CCN2CCOCC2)C3=O)n1` too.
// result 24 µM

// query Please give the result for `O=c1c2cccc(Cl)c2sc2c(NCCCNCCO)nc3ccccc3c12` too.
// result 5.43 µM

// query Please give the result for O=C1CC(c2ccc(N3CCOCC3)cc2)(c2ccsc2)NC(=O)C1Sc1ccccc1Cl (centres undefined) too.
// result > 100 µM
